EXPERIMENTAL SYSTEM: T1, recombinant human CD40-his (Acro biosystems, Cat. No. CD0-H5228) (human, UniProt P25942 21-193)
T1 construct: Bought protein; also called human CD40-his protein; not shown: His tag
T1 sequence (P25942 21-193 limits assumed): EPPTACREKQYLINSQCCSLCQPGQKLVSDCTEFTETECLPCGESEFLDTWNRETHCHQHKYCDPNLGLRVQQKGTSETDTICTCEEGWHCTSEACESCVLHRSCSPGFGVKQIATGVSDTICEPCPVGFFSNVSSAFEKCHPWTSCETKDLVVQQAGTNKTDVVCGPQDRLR
ASSAY EXPLANATION: SPR (Biacore T200), antibody captured on anti-human IgG chip, CD40-his as analyte, 1:1 fit
Protocol: Briefly, a goat anti-human IgG (GE Healthcare, Cat. No. BR100839, human antibody capture kit) was covalently linked to a CM5 chip (GE Healthcare, Cat. No. BR100530, carboxymethylated dextran-coated chip) via the primary amine group using a standard amine coupling kit supplied by Biacore (GE Healthcare, Pittsburgh, PA, USA). Unreacted portions on the biosensor surface were blocked with ethanolamine. […] KD, Kₐ, and Kd values were determined.

{"BINDER": "humanized antibody huC1H1-V2 (antibody, human IgG2, kappa, V domains shown, Human IgG2 / kappa) VH: EVQLVESGGGLVKPGGSLRLSCAASGFTFSNYGISWVRQAPGKGLEWVSSISSGGDNTYYPDNVKGRFTISRDNAKNSLYLQMNSLRAEDTAVYYCARAGEKAMDYWGQGTLVTVSS VL: EIVLTQSPATLSLSPGERATLSCRASQTINNNLHWYQQKPGQAPRLLIKYASQSISGIPARFSGSGSGTDFTLTISSLEPEDFAVYFCQQFSSWPLTFGGGTKVEIKR", "UNIT OF MEASURE": "nM", "Kd": 1.17}
{"BINDER": "BM1 (dacetuzumab) (antibody, human IgG1, kappa, V domains shown, Benchmark antibody, prepared in-house; also called CD40-BM1; benchmark) VH: EVQLVESGGGLVQPGGSLRLSCAASGYSFTGYYIHWVRQAPGKGLEWVARVIPNAGGTSYNQKFKGRFTLSVDNSKNTAYLQMNSLRAEDTAVYYCAREGIYWWGQGTLVTVSS VL: DIQMTQSPSSLSASVGDRVTITCRSSQSLVHSNGNTFLHWYQQKPGKAPKLLIYTVSNRFSGVPSRFSGSGSGTDFTLTISSLQPEDFATYFCSQTTHVPWTFGQGTKVEIKR", "UNIT OF MEASURE": "nM", "Kd": 9.42}
{"BINDER": "chimeric antibody C1H1 (antibody, human IgG1, kappa, V domains shown, also called Chimeric C1H1) VH: EVKLVESGGGLVKPGASLKLSCAASGFTFSNYGISWVRQTSDKRLEWVASISSGGDNTYYPDNVKGRFTISRENAKNTLYLQMSSLKSEDTALYYCARAGEKAMDYWGQGTSVTVSS VL: DIVLTQSPVTLSVTPGDSVSLSCRASQTINNNLHWYQQKSHESPRLLIKYASQSISGIPSRFSGSGSGTDFTLSINSVETEDFGIYFCQQFSSWPLTFGAGTKLELKR", "UNIT OF MEASURE": "nM", "Kd": 0.884}
